Origin of measurements: ChEMBL document CHEMBL1201862

Test system: A549
Assay: NCI tumour cell line growth inhibition, 48 h
Calls of active or inactive are those of the source. Rule as the data show it: active = GI50 up to about 1.1 µM and inactive = higher.
Possible outcomes: 1 for active, -1 for inactive

Compound	Assay System	Label
OCC(O)C(O)C(O)c1nn(-c2ccccc2)c2nc3cc(Cl)c(Cl)cc3nc12 (stereo unspecified)	A549	-1
COC(=O)C#CC1(O)C=CC(=O)C=C1	A549	-1
COC1/C=C/OC2(C)Oc3c(C)c(O)c4c(c3C2=O)C(=O)C=C(NC(=O)/C(C)=C\C=C\C(C)C(OC=O)C(C)C(O)C(C)C(OC(C)=O)C1C)C4=O (stereo unspecified)	A549	-1
CCOC(=O)c1c(N)sc2c1CC(C)CC2 (stereo unspecified)	A549	-1
[N-]=[N+]=CC(=O)C1(C(=O)C=[N+]=[N-])CC1	A549	-1
O=c1c2cc([N+](=O)[O-])ccc2n2n1CCCC2	A549	-1
CC(C)CN1CN(c2ccccc2)C2(CCN(CC(C)(c3ccc(F)cc3)C3OCCO3)CC2)C1=O (stereo unspecified)	A549	-1
O=[N+]([O-])c1cccc2nc3ccccc3c(NCCCN3CCCCC3)c12	A549	1
CCOC(=O)CCc1cn2cc(Br)nc(OC)c2n1	A549	-1
CCC/C(C)=N/NC(=S)SC.CCC/C(C)=N/NC(=S)SC.[Zn+2]	A549	-1
COC(=O)c1c/c(=N\NC(=O)CC(=O)Nc2ccc(C)cc2)c2ccccc2o1	A549	-1
CCCCCCCCC(O)C#CC(N)=O (stereo unspecified)	A549	-1
CCN(CC)CCN1CCc2c([nH]c3ccccc23)C1c1cccnc1 (stereo unspecified)	A549	-1
CNC(=O)/C(=C/c1ccc(OC)cc1)c1cc(OC)c(OC)c(OC)c1	A549	-1
O=c1[nH]nc(Cc2ccccc2)n1/N=C/c1ccccc1Cl	A549	-1
C=C(CO)CC(/C=C(\C)CC/C=C(\C)CCl)OC(C)=O (stereo unspecified)	A549	-1
CC(=O)O[C@H]1CC[C@@]2(C)[C@@H](CC[C@@H]3[C@@H]2CC(=O)[C@@]2(C)[C@H]3C[C@@H]3CC(C)=CC(=O)[C@@H]32)C1	A549	-1
O=C(Nc1ccn(C2CC(O)C(CO)O2)c(=O)n1)c1ccccc1 (stereo unspecified)	A549	-1
Oc1ccc[n+](Cc2ccccc2)c1	A549	-1
CC(=O)Nc1ccc(COC(O)CN2CCCCC2)cc1[N+](=O)[O-] (stereo unspecified)	A549	-1
CCCCCCNC(=O)CCN(C(=O)O)S(=O)(=O)c1ccc(NC(=O)c2ccccc2)cc1	A549	-1
CCOc1ccc(NC(=O)C2=C(C)NC(C)=C(C(=O)Nc3ccc(OCC)cc3)C2c2ccc(O)c(OC)c2)cc1	A549	-1
BrC1(c2ccccc2)C[n+]2c(-c3ccccc3)cc(-c3ccccc3)cc2-c2ccccc21 (stereo unspecified)	A549	1
Cc1ncc([N+](=O)[O-])n1CCNS(=O)(=O)CCCn1ncnc1[N+](=O)[O-]	A549	-1
CCOC(=O)c1sc2nc(SC)nc3c2c1NCN3C1CC1	A549	-1
c1ccc2c(Nc3ncco3)cccc2c1	A549	-1
C[C@@]12CC[C@H]3[C@@H]4CCC(=O)N[C@@]4(C)CC[C@@H]3[C@@]1(C)CC[C@H](OC(=O)Cc1ccc(N(CCCl)CCCl)cc1)C2	A549	-1
CS(=O)(=O)Nc1ccc(Nc2ccnc3ccc4[nH]ccc4c23)cc1	A549	-1
CNC(C#N)c1ccc(OC)cc1 (stereo unspecified)	A549	-1
COc1cc(-c2oc3c(OC)c(O)cc(O)c3c(=O)c2OC)ccc1O	A549	-1
O=CNc1ccc2c(c1)C(=O)c1ccccc1-2	A549	-1
